Overview of reported response across a group of binders:
Target: T1, M2 muscarinic acetylcholine receptor, C-terminally tagged with Renilla luciferase variant 8, P08172
T1 chain: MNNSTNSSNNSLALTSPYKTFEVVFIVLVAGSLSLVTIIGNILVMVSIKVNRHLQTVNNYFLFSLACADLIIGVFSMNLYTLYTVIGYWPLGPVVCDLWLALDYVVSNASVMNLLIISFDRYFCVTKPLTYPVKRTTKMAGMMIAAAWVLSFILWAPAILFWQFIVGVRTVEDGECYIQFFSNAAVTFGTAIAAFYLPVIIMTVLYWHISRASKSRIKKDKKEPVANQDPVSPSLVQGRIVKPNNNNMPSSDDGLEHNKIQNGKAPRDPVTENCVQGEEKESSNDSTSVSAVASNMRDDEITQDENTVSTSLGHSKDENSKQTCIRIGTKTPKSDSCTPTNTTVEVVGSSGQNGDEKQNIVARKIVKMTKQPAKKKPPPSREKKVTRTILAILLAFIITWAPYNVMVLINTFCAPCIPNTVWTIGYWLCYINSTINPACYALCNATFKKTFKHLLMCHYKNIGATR
Assay: BRET
Settings: chain shown with the change; HEK293 arrestin 2/3 KO cells; agonist-induced minus basal BRET; average at 10 and 15 min; parent: est. 0.029; read off a plot
Respond with the number and no other words.

BINDER: Venus-tagged arrestin-3 A87V base mutant, P32120 G65del (protein) MGEKPGTRVFKKSSPNCKLTVYLGKRDFVDHLDKVDPVDGVVLVDPDYLKDRKVFVTLTCAFRYREDLDVLGLSFRKDLFIANYQVFPPTPNPPRPPTRLQERLLRKLGQHAHPFFFTIPQNLPCSVTLQPGPEDTGKACGVDFEIRAFCAKSLEEKSHKRNSVRLVIRKVQFAPEKPGPQPSAETTRHFLMSDRSLHLEASLDKELYYHGEPLNVNVHVTNNSTKTVKKIKVSVRQYADICLFSTAQYKCPVAQVEQDDQVSPSSTFCKVYTITPLLSNNREKRGLALDGKLKHEDTNLASSTIVKEGANKEVLGILVSYRVKVKLVVSRGGDVSVELPFVLMHPKPHDHIALPRPQSAA
REPORTED: 0.019

Please examine the following record next.
### Prompt Fill blank: measured response of the binder Venus-tagged arrestin-3 A87V base mutant, P32120 E157A (protein) MGEKPGTRVFKKSSPNCKLTVYLGKRDFVDHLDKVDPVDGVVLVDPDYLKDRKVFVTLTCAFRYGREDLDVLGLSFRKDLFIANYQVFPPTPNPPRPPTRLQERLLRKLGQHAHPFFFTIPQNLPCSVTLQPGPEDTGKACGVDFEIRAFCAKSLEAKSHKRNSVRLVIRKVQFAPEKPGPQPSAETTRHFLMSDRSLHLEASLDKELYYHGEPLNVNVHVTNNSTKTVKKIKVSVRQYADICLFSTAQYKCPVAQVEQDDQVSPSSTFCKVYTITPLLSNNREKRGLALDGKLKHEDTNLASSTIVKEGANKEVLGILVSYRVKVKLVVSRGGDVSVELPFVLMHPKPHDHIALPRPQSAA is ____.
### Response 0.026
